- experimentalDetails: Solubility of paclitaxel in various solvents (HPLC)
- Format: physicochemical
- experimentalSetup: peg, organic solvent or mixture, solvent PEG; 60 min at room temperature; read-out: Solubility
measuredMetric: solubility

## Task Data request, read-out solubility, for CC(=O)O[C@H]1C(=O)[C@@]2(C)[C@H]([C@H](OC(=O)c3ccccc3)[C@]3(O)C[C@H](OC(=O)[C@H](O)[C@@H](NC(=O)c4ccccc4)c4ccccc4)C(C)=C1C3(C)C)[C@]1(OC(C)=O)CO[C@@H]1C[C@@H]2O [Paclitaxel]
## Result < 100 µg/mL

---

- experimentalDetails: Solubility of paclitaxel in various solvents (HPLC)
- Type: physicochemical
- experimentalSetup: propylene glycol, organic solvent or mixture, solvent propylene glycol; 60 min at room temperature; read-out: Solubility
measuredMetric: solubility

## Task So what does the record say about solubility for CC(=O)O[C@H]1C(=O)[C@@]2(C)[C@H]([C@H](OC(=O)c3ccccc3)[C@]3(O)C[C@H](OC(=O)[C@H](O)[C@@H](NC(=O)c4ccccc4)c4ccccc4)C(C)=C1C3(C)C)[C@]1(OC(C)=O)CO[C@@H]1C[C@@H]2O ?
## Result < 100 µg/mL

---

- experimentalDetails: Solubility of paclitaxel in various solvents (HPLC)
- Assay type: physicochemical
- experimentalSetup: 5% dextrose, solvent 5% dextrose; 60 min at room temperature; read-out: Solubility
measuredMetric: solubility

## Task Reported solubility, compound CC(=O)O[C@H]1C(=O)[C@@]2(C)[C@H]([C@H](OC(=O)c3ccccc3)[C@]3(O)C[C@H](OC(=O)[C@H](O)[C@@H](NC(=O)c4ccccc4)c4ccccc4)C(C)=C1C3(C)C)[C@]1(OC(C)=O)CO[C@@H]1C[C@@H]2O [Paclitaxel] : ____
## Result < 100 µg/mL

---

- experimentalDetails: Solubility of paclitaxel in various solvents (HPLC)
- Format: physicochemical
- experimentalSetup: dmso, organic solvent or mixture, solvent DMSO; RT; read-out: Solubility
measuredMetric: solubility

## Task What value of solubility has been reported for the following molecule? CC(=O)O[C@H]1C(=O)[C@@]2(C)[C@H]([C@H](OC(=O)c3ccccc3)[C@]3(O)C[C@H](OC(=O)[C@H](O)[C@@H](NC(=O)c4ccccc4)c4ccccc4)C(C)=C1C3(C)C)[C@]1(OC(C)=O)CO[C@@H]1C[C@@H]2O
## Result > 100 mg/mL
